Reference source: patent US20220153751A1

# Tested on: IL-6
# Assay notes: IL-6 inhibition assay, LPS-induced PBMCs / CD14+ monocytes (Meso Scale)
# Format: cell-based
# Condition parameters: 1 h pretreatment, 100 ng/mL LPS 18-24 h

Compound	inhibition at 1 µM
CC(C)(C)c1cnc(CSc2cnc(NC(=O)C3CCN(CC(=O)NCCOCCOCCOCCNCC(=O)NCc4cc5c(s4)C(=O)N(C4CCC(=O)NC4=O)C5)CC3)s2)o1 (stereo not shown)	> 90%
Cn1ncc(-c2nc(N[C@H]3CC[C@H](NC(=O)CCCCCCNC(=O)NCc4cc5c(s4)C(=O)N(C4CCC(=O)NC4=O)C5)CC3)ncc2Cl)c1CC1CC1 (stereo partly shown)	> 90%
Cn1ncc(-c2nc(N[C@H]3CC[C@H](NCC(=O)NCCOCCOCCOCCNC(=O)NCc4cc5c(s4)C(=O)N(C4CCC(=O)NC4=O)C5)CC3)ncc2Cl)c1CC1CC1 (stereo partly shown)	70 to 90%
Cn1ncc(-c2nc(N[C@H]3CC[C@H](NCC(=O)NCCCCNCC(=O)NCc4cc5c(s4)C(=O)N(C4CCC(=O)NC4=O)C5=O)CC3)ncc2F)c1CC1CC1 (stereo partly shown)	> 90%
CC(C)(C)c1cnc(CSc2cnc(NC(=O)C3CCN(CC(=O)NCCOCCNC(=O)NCc4scc5c4CN(C4CCC(=O)NC4=O)C5=O)CC3)s2)o1 (stereo not shown)	> 90%
Cn1ncc(-c2nc(N[C@H]3CC[C@H](NCCCCCCNC(=O)NCc4cc5c(s4)C(=O)N(C4CCC(=O)NC4=O)C5)CC3)ncc2F)c1CC1CC1 (stereo partly shown)	< 50%
Cn1ncc(-c2ncnc(N[C@H]3CC[C@H](NCCCCCCCCNC(=O)NCc4cc5c(s4)C(=O)N(C4CCC(=O)NC4=O)C5)CC3)n2)c1CC1CC1 (stereo partly shown)	< 50%
CC(C)(C)c1cnc(CSc2cnc(NC(=O)C3CCN(CC(=O)NCCOCCOCCNCC(=O)NCc4cc5c(s4)C(=O)N(C4CCC(=O)NC4=O)C5)CC3)s2)o1 (stereo not shown)	70 to 90%
CC(C)(C)c1cnc(CSc2cnc(NC(=O)C3CCN(CCCCCCCNCC(=O)NCc4cc5c(s4)C(=O)N(C4CCC(=O)NC4=O)C5)CC3)s2)o1 (stereo not shown)	> 90%
Cn1ncc(-c2nc(N[C@H]3CC[C@H](NCC(=O)NCCOCCOCCOCCNc4cccc5c4CN(C4CCC(=O)NC4=O)C5=O)CC3)ncc2Cl)c1CC1CC1 (stereo partly shown)	> 90%
Cn1ncc(-c2nc(N[C@H]3CC[C@H](NC(=O)CCCCCCNCC(=O)NCc4ccc(COc5cccc6c5CN(C5CCC(=O)NC5=O)C6=O)cc4)CC3)ncc2Cl)c1CC1CC1 (stereo partly shown)	< 50%
Cn1ncc(-c2nc(N[C@H]3CC[C@H](NCC(=O)NCCOCCOCC(=O)NCc4ccc(COc5cccc6c5CN(C5CCC(=O)NC5=O)C6=O)cc4)CC3)ncc2Cl)c1CC1CC1 (stereo partly shown)	> 90%
CC(C)(C)c1cnc(CSc2cnc(NC(=O)C3CCN(CC(=O)NCCOCCOCCNCC(=O)NCc4scc5c4CN(C4CCC(=O)NC4=O)C5=O)CC3)s2)o1 (stereo not shown)	> 90%
CC(C)(C)c1cnc(CSc2cnc(NC(=O)C3CCN(CC(=O)NCCOCCOCCOCCNCC(=O)NCc4scc5c4CN(C4CCC(=O)NC4=O)C5=O)CC3)s2)o1 (stereo not shown)	> 90%
CC(C)(C)c1cnc(CSc2cnc(NC(=O)C3CCN(CCOCCOCCOCCOCCNCC(=O)NCc4scc5c4CN(C4CCC(=O)NC4=O)C5=O)CC3)s2)o1 (stereo not shown)	70 to 90%
Cn1ncc(-c2nc(N[C@H]3CC[C@H](NCCOCCOCCOCCNCc4cc5c(s4)C(=O)N(C4CCC(=O)NC4=O)C5)CC3)ncc2Cl)c1CC1CC1 (stereo partly shown)	< 50%
Cc1nc2c(CNC(=O)NCCCCCCCCN[C@H]3CC[C@H](Nc4ncc(Cl)c(-c5cnn(C)c5CC5CC5)n4)CC3)scc2c(=O)n1C1CCC(=O)NC1=O (stereo partly shown)	> 90%
CC(C)(C)c1cnc(CSc2cnc(NC(=O)C3CCN(CCOCCOCCNC(=O)NCc4cc5c(s4)C(=O)N(C4CCC(=O)NC4=O)C5)CC3)s2)o1 (stereo not shown)	> 90%
CC(C)(C)c1cnc(CSc2cnc(NC(=O)C3CCN(CC(=O)NCCOCCNC(=O)NCc4cccc5c4CN([C@H]4CCCC(=O)NC4=O)C5=O)CC3)s2)o1	< 50%
CC(C)(C)c1cnc(CSc2cnc(NC(=O)C3CCN(CC(=O)NCCOCCNC(=O)NCc4ccc5c(c4)CN([C@H]4CCCC(=O)NC4=O)C5=O)CC3)s2)o1	50 to 70%
Cn1ncc(-c2nc(N[C@H]3CC[C@H](NCC(=O)NCCCCNCC(=O)NCc4scc5c4C(=O)N(C4CCC(=O)NC4=O)C5=O)CC3)ncc2Cl)c1CC1CC1 (stereo partly shown)	> 90%
CC(C)(C)c1cnc(CSc2cnc(NC(=O)C3CCN(CC(=O)NCCOCCOCCNC(=O)NCc4cc5c(s4)C(=O)N(C4CCC(=O)NC4=O)C5)CC3)s2)o1 (stereo not shown)	> 90%
